The values you see were collected from PubChem BioAssay (NCI).

System: M14 melanoma
Test: NCI-60 one-dose screen, 48 h (100 = growth as untreated, 0 = no growth, -100 = all killed)
Conditions: 10 µM unless noted
This is part of a sample that, as a whole, favours compounds with a hit. Of some 83,000 tested, about 20% had one in any assay.
READOUT LABEL: growth (%)

                     structure_smiles_string  target_entity  readout_label  reported_value
 0  COc1cc(NCC(=O)Nc2cc(Nc3ccc(C)cc3)ncn2)c(Cl)c(OC)c1Cl   M14 melanoma         growth            88.4
 1  O=C(Nc1nc(-c2ccccc2)cs1)c1cc(-c2ccc(Br)cc2)nc2ccccc12   M14 melanoma         growth            75.3
 2  COc1cc(/C=C/C(=O)c2cccs2)ccc1OCc1ccc(Cl)nc1   M14 melanoma         growth              82
 3                 CCOCCc1c(O)nc(SC)[nH]c1=O   M14 melanoma         growth            98.9
 4                   CCCNc1nc(C)[nH]c(=O)c1S   M14 melanoma         growth             109
 5  N#Cc1c(-c2ccc(F)cc2)nc(N=Nc2c(O)[nH]c3ccccc23)nc1N1CCOCC1   M14 melanoma         growth            72.3
 6  COc1ccc2nc(-c3ccc(Cl)cc3)cc(-c3nnc(SCC(=O)Nc4ccc(/C(C)=N\O)cc4)o3)c2c1   M14 melanoma         growth            30.3
 7   COc1ccc(/C=C/C(=O)Nc2ncnc3nc[nH]c23)cc1   M14 melanoma         growth            87.8
 8  COc1ccc(/C=C(/C(=O)N2CCCC2)c2cc(OC)c(OC)c(OC)c2)cc1   M14 melanoma         growth            2.21
 9         C/C(=N\NC(=O)c1ccncc1)c1ccc(N)cc1   M14 melanoma         growth             102
10  O=c1nc(-c2ccccc2)c2cc(-c3ccc(N4CCCC4)nc3)ccc2[nH]1   M14 melanoma         growth            47.9
